- System: phosphorylation of Serine 473 in Akt
- experiment.summary: In Vitro Phospho-Ser473 Akt Assay in MDA-MB-468 cells
- Assay type: cell-based
- study.conditions: Homo sapiens, MDA-MB-468, read-out: IC50 values against mTOR, phospho-Ser473 Akt assay, MDA-MB-468 cells
pIC50: −log10 of the molar value.
Reported pIC50 values for the following compounds.

compound	pIC50
COC[C@@H](C)Nc1nc(N2CCOC[C@@H]2C)c2ccc(-c3ccc(OC)c(CO)c3)nc2n1 [Example 18bo]	> 7.00
COc1ccc(-c2ccc3c(N4CCOC[C@@H]4C)nc(NC(C)C)nc3n2)cc1CO [Example 18br]	> 7.00
COc1ccc(-c2ccc3c(N4CCOC[C@@H]4C)nc(N4CCOC[C@@H]4C)nc3n2)cc1CNCCc1cnc[nH]1 [Example 4be]	> 7.00
COc1ccc(-c2ccc3c(N4CCOC[C@@H]4C)nc(N4CCOC[C@@H]4C)nc3n2)cc1CNC1CCCC1 [Example 4an]	> 6.52
COc1ccc(-c2ccc3c(N4CCOC[C@@H]4C)nc(N4CCOC[C@@H]4C)nc3n2)cc1C(N)=O [Example 14b]	> 7.00
C[C@H]1COCCN1c1nc(N2CCOC[C@@H]2C)c2ccc(-c3ccc(F)c(C(=O)NCCO)c3)nc2n1 [Example 1ag]	> 7.00
COc1ccc(CCNCc2cc(-c3ccc4c(N5CCOC[C@@H]5C)nc(N5CCOC[C@@H]5C)nc4n3)ccc2OC)cc1 [Example 4bd]	> 7.00
COCC(=O)N(C)Cc1ccc(-c2ccc3c(N4CCOC[C@@H]4C)nc(N4CCOC[C@@H]4C)nc3n2)cc1 [Example 5s]	> 6.52
COCc1cccc(-c2ccc3c(N4CCOC[C@@H]4C)nc(N4CCOC[C@@H]4C)nc3n2)c1 [Example 1bb]	> 7.00
COc1ccc(-c2ccc3c(N4CCOC[C@@H]4C)nc(N4CCOC[C@@H]4C)nc3n2)cc1 [Example 1bo]	> 6.52
COc1ccc(-c2ccc3c(N4CCOC[C@@H]4C)nc(N4CCC(O)(c5ccccc5)CC4)nc3n2)cc1CO [Example 18am]	> 7.00
COc1ccc(-c2ccc3c(N4CCOC[C@@H]4C)nc(N4CCOC[C@@H]4C)nc3n2)cc1CNCC1CC1 [Example 4ax]	> 7.00
C[C@H]1COCCN1c1nc(N2CCOC[C@@H]2C)c2ccc(-c3ccc(F)c(CNCCO)c3)nc2n1 [Example 4ac]	> 7.00
COc1ccc(-c2ccc3c(N4CCOC[C@@H]4C)nc(N4CCC[C@@H]4CO)nc3n2)cc1CO [Example 18cm]	> 7.00
C[C@@H]1CN(c2nc(N3CCOC[C@@H]3C)c3ccc(-c4ccoc4)nc3n2)C[C@H](C)O1 [Example 1cf]	> 6.52
COc1ccc(-c2ccc3c(N4CCOC[C@@H]4C)nc(N4CCOc5ccccc54)nc3n2)cc1CO [Example 18bl]	> 6.52
COc1ccc(-c2ccc3c(N4CCOC[C@@H]4C)nc(N4CCC(N5CCOCC5)CC4)nc3n2)cc1CO [Example 18ac]	> 7.00
COc1ccc(-c2ccc3c(N4CCOC[C@@H]4C)nc(N(CCO)C(C)C)nc3n2)cc1CO [Example 18cs]	> 7.00
C[C@H]1COCCN1c1nc(N2CCOC[C@@H]2C)c2ccc(-c3ccc(F)c(CO)c3)nc2n1 [Example 1bc]	> 7.00
COc1ccc(-c2ccc3c(N4CCOC[C@@H]4C)nc(N4CCOC[C@@H]4C)nc3n2)cc1CNC1CCC(C)CC1 (stereo partly drawn) [Example 4bc]	> 7.00
COc1ccc(-c2ccc3c(N4CCOC[C@@H]4C)nc(N4CCNC(=O)C4)nc3n2)cc1CO [Example 18cf]	> 7.00
COc1ccc(-c2ccc3c(N4CCOC[C@@H]4C)nc(N4CCCCC4)nc3n2)cc1CO [Example 18c]	> 7.00
C[C@H]1COCCN1c1nc(N2CCOC[C@@H]2C)c2ccc(-c3ccc(F)c(CN4CCC[C@@H](O)C4)c3)nc2n1 [Example 4ah]	> 6.52
COc1ccc(-c2ccc3c(N4CCOC[C@@H]4C)nc(N4CCCCCC4)nc3n2)cc1CO [Example 18d]	> 7.00
CNC(=O)c1cc(-c2ccc3c(N4CCOC[C@@H]4C)nc(N4CCOC[C@@H]4C)nc3n2)ccc1F [Example 1ae]	> 7.00
C[C@H]1COCCN1c1nc(N2CCOC[C@@H]2C)c2ccc(-c3ccoc3CO)nc2n1 [Example 6a]	> 6.52
COc1ccc(-c2ccc3c(N4CCOC[C@@H]4C)nc(N4CCOC[C@@H]4C)nc3n2)cc1C(=O)NCCO [Example 8b]	> 7.00
COc1ccc(-c2ccc3c(N4CCOC[C@@H]4C)nc(N4CCC(CO)CC4)nc3n2)cc1CO [Example 18x]	> 7.00
CCOC(=O)C1CCN(c2nc(N3CCOC[C@@H]3C)c3ccc(-c4ccc(OC)c(CO)c4)nc3n2)CC1 [Example 18u]	> 7.00
COc1ccc(-c2ccc3c(N4CCOC[C@@H]4C)nc(N4CCC(C)CC4)nc3n2)cc1CO [Example 18t]	> 7.00
